Hello, the source for this data is ChEMBL document CHEMBL3507680, in case you need it.

experiment: Human HepG2 cell viability assay in 384 well format; assay type: toxicity, cell-based; set-up: dose 125 nL, time 70.5 hour; concentration not given beside the values; settings: HepG2 cells, read-out: Inhibition
I'd be grateful if you could share measured cytotoxicity at 70.5 h for these entries.
Answers are plain numbers, in %.

These solved cases illustrate the format of a correct answer.
>>> numeric_readout("CC(C)(CN1CCCC1)CN1CCC(Cn2cc(C3CC3)nn2)CC1")
-9.26
>>> numeric_readout("O=c1[nH]c(COc2ccc(Cl)cc2)nc2c1CCNC2")
16.3
>>> numeric_readout("CNC(=O)[C@@H]1C[C@@H](NC(=O)Cc2cccs2)CN1C1CCOCC1")
-3.22
>>> numeric_readout("CCC(=O)N1Cc2nccn2CC(CN(C)Cc2cccnc2)C1 (stereo not drawn)")
-17.9
>>> numeric_readout("O=C1CC2(CCN(Cc3ccoc3)C2)CN1c1cncnc1 (stereo not drawn)")
-4.55
>>> numeric_readout("Cn1cc(N2C[C@@H]3CN(Cc4ccccn4)C[C@@H]3C2=O)cn1")
24.4
>>> numeric_readout("Nc1ccnc(N2CCCC(CO)(Cc3cccc(Cl)c3)C2)n1 (stereo not drawn)")
6.17
>>> numeric_readout("CC(=O)N1CCCC(c2ccc(Cc3ccccc3)cn2)C1 (stereo not drawn)")
20

Count: 2. Required value per item: cytotoxicity at 70.5 h.
1. COC[C@@]12CCO[C@@H]1CCN(C(=O)Cc1cccc(F)c1)C2
2. CN1CCCCC1c1ncc2c(n1)CCN(Cc1ccc(Cl)c(F)c1)C2 (stereo not drawn)

Ans.
1: 2.86; 2: -3.53

Count: 4. Required value per item: cytotoxicity at 70.5 h.
1. Cc1cc(CN[C@H](C(N)=O)[C@@H](C)O)c(C)s1
2. Cc1nnc(CN2CCN(C)C3(CCC(=O)N(CCO)CC3)C2)s1 (stereo not drawn)
3. CSCC1CCCN(c2ncnc3oc(C)nc23)C1 (stereo not drawn)
4. CC1CCN(C(=O)C2CCCN(C(=O)Nc3ccccn3)C2)CC1 (stereo not drawn)

Ans.
[-3.69, 3.3, -9.81, -9.24]

Count: 3. Required value per item: cytotoxicity at 70.5 h.
1. c1ccc(C[C@H]2CN(C3CCOCC3)CC[C@H]2OCC2CC2)cc1
2. Cc1nonc1OCCNc1ncnc2sc3c(c12)CCNC3
3. CN1CCN(Cc2nnc(C3CCN(C(CO)CO)CC3)n2C)CC1

Ans.
1: -8.83; 2: -3.76; 3: -23.4
